# System: bladder
# PROTOCOL NOTES: animal or person
# CONDITION DESCRIPTION: Rattus norvegicus, po, 3 h, read-out: Contraction interval
MEASURED METRIC: response vs control in vivo at 1 mg/kg (%)
Answer with a number only, understood to be in %.

Sample answers from the record:
compound="COc1ccc2c(c1)CS(=O)(=O)c1cccc(NC(=O)C(C)(O)C(F)(F)F)c1C2=O (stereo not shown)" target_under_test=bladder measured_metric="response vs control in vivo at 1 mg/kg" val=160
compound="O=C1c2sccc2CS(=O)(=O)c2cccc(NC(=O)C3CCCO3)c21 (stereo not shown)" target_under_test=bladder measured_metric="response vs control in vivo at 1 mg/kg" val=129
compound=CC(C)(O)C(=O)Nc1cccc2c1C(=O)c1sccc1CS2(=O)=O target_under_test=bladder measured_metric="response vs control in vivo at 1 mg/kg" val=152

Now take the following compound into account.
Simply: CC(O)(C(=O)Nc1ccc2c(c1)C(=O)c1sccc1CS2(=O)=O)C(F)(F)F (stereo not shown) , bladder, response vs control in vivo at 1 mg/kg = 143
